tested_on: FAAH (Mus musculus)
Construct: A fragment of liver, left lung lobe and brain without cerebellum were removed; from tissue; host or cells: male NMRI mice; brain (without cerebellum) and liver homogenates
Sequence (O08914 whole entry, the tested form may be a part): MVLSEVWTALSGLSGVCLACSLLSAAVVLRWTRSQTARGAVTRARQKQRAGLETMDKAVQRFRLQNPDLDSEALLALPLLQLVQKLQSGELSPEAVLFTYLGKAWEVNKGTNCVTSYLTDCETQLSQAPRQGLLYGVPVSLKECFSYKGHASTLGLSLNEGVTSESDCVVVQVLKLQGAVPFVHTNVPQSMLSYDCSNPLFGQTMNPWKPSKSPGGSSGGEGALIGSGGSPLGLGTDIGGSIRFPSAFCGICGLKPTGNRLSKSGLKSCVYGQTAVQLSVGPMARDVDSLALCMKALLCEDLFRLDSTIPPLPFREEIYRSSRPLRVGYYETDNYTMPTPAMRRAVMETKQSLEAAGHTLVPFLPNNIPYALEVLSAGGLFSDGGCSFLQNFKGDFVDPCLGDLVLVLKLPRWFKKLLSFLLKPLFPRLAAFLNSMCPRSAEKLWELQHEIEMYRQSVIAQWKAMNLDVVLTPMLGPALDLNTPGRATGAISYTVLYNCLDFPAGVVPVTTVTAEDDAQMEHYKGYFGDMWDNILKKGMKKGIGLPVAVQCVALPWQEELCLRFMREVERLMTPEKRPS
method_notes: In vivo FAAH inhibition after oral dosing, remaining activity in brain homogenate (BRh, central nervous tissue)
Design: species or system NMRI mice
test_parameters: brain homogenate, 3 mg/kg, 8 h
Description: The in vivo test was performed according to the protocol described below. BRh indicates inhibition in central nervous tissue and LVh indicates inhibition in peripheral tissue, in this case liver. […] Total protein in tissues was determined with the BioRad Protein Assay (BioRad) using a standard curve of BSA (50-250 μg/ml). […] The percentage of remaining enzymatic activity was calculated in respect to controls and after blank subtraction.
property_measured: In Vivo BRh 3 mg/kg 8 h, remaining FAAH activity

Before answering, review these 5 worked examples.
>  <compound>
Cl.O=C(N1CCN(Cc2ccccc2)CC1)n1cnc(-c2cccs2)n1 [Compound 158]

>  <measurement>
92 % of control

$$$$
>  <compound>
CC1(C)COCN1C(=O)n1nnc2ccc(Br)cc21 [Compound 162]

>  <measurement>
0.9 % of control

$$$$
>  <compound>
CN(C(=O)n1cnc(-c2ccc(C(N)=O)cc2)c1)c1ccccc1 [Compound 113]

>  <measurement>
84.1 % of control

$$$$
>  <compound>
Cc1c(-c2ccccc2)ncn1C(=O)N(C)C1CCCCC1 [Compound 254]

>  <measurement>
98.3 % of control

$$$$
>  <compound>
O=C(N1CCN(Cc2ccc(F)cc2)CC1)n1nnc2ccccc21 [Compound 121]

>  <measurement>
118.6 % of control

$$$$

Input: Fill in reported In Vivo BRh 3 mg/kg 8 h, remaining FAAH activity for this entry: CC(C)N(Cc1ccccc1)C(=O)n1cnc(-c2ccccc2)c1 [Compound 250]
Output: 102.1 % of control

These measurements were taken from patent US9353082B2.
